# TARGET_OR_SYSTEM: Ecm22 (UniProt Q05958)
# Sequence: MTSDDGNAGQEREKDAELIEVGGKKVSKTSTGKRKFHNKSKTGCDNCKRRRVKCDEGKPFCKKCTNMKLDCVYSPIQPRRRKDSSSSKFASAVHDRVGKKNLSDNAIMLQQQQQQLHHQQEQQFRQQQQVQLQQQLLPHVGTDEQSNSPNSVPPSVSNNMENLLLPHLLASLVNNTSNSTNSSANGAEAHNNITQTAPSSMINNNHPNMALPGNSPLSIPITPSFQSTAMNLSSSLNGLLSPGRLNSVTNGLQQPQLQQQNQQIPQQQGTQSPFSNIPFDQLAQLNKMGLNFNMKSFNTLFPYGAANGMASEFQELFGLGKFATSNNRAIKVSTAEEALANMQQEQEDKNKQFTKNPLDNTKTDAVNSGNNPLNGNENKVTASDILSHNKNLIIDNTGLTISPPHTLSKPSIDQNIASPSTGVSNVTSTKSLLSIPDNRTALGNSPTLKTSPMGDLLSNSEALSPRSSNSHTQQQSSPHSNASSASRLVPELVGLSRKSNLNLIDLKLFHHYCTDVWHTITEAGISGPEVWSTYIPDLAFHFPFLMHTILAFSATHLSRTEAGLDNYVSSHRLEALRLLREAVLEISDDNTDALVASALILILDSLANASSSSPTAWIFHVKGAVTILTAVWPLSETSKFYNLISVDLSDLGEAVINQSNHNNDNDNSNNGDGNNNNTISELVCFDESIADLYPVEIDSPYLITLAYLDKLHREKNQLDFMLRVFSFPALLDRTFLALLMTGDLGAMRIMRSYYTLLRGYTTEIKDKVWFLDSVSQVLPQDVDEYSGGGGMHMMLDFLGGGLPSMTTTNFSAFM
# PROCEDURE_SUMMARY: PBM E-score (8-mer binding enrichment) (E-score (-0.5 to 0.5)); higher = stronger / more preferred TF binding
# MEASUREMENT_CONTEXT: protein concentration: 200 nM; construct: GST-full length
In all, about 33,000 sequences were measured (“E-score (-0.5 to 0.5)”: median about -0.041, highest 2% from about 0.37 on). Many of the other results were omitted from the sample, so the highest values are more common in it than they were.
Output Fulfilled for PBM E-score not less than 0.2; output Not fulfilled otherwise.

>>> category_label("AGATACGA")
"Fulfilled"
>>> category_label("AGGGAGAT")
"Not fulfilled"
>>> category_label("GGATACCA")
"Not fulfilled"
>>> category_label("CCCGTACA")
"Fulfilled"
>>> category_label("AGCGTACA")
"Not fulfilled"
>>> category_label("GAACGAGA")
"Fulfilled"
>>> category_label("TACGACCA")
"Fulfilled"
>>> category_label("ACTGGATG")
"Not fulfilled"
>>> category_label("ACGGTTAC")
"Fulfilled"
>>> category_label("CGAAGGAG")
"Not fulfilled"
>>> category_label("GGATACGA")
"Fulfilled"
>>> category_label("AACTGCAG")
"Not fulfilled"
>>> category_label("CCCGCTGA")
"Not fulfilled"
>>> category_label("GGATACTA")
"Not fulfilled"
>>> category_label("ACGCTACA")
"Not fulfilled"
>>> category_label("CGCACCAC")
"Not fulfilled"
>>> category_label("AGGAGGCA")
"Not fulfilled"
>>> category_label("AGCTGCGG")
"Not fulfilled"
>>> category_label("CTCCTCTC")
"Not fulfilled"
>>> category_label("ACCGTACA")
"Fulfilled"
>>> category_label("GCCACTCA")
"Not fulfilled"
>>> category_label("ATTCGTCC")
"Not fulfilled"
>>> category_label("CCCGTACG")
"Fulfilled"
>>> category_label("GCACGAAA")
"Not fulfilled"
>>> category_label("CTTCGTCA")
"Not fulfilled"
>>> category_label("CCCGTAGG")
"Not fulfilled"
>>> category_label("ACCGTAAC")
"Fulfilled"
>>> category_label("GACGACCC")
"Not fulfilled"
>>> category_label("CACGTACC")
"Fulfilled"
>>> category_label("CTGCGGGA")
"Not fulfilled"
>>> category_label("GTGGCGTA")
"Not fulfilled"
>>> category_label("TCTTCGAA")
"Not fulfilled"
>>> category_label("GGACGAGA")
"Not fulfilled"
>>> category_label("CCGCTACG")
"Fulfilled"
>>> category_label("ACACGAAT")
"Fulfilled"
>>> category_label("GCACGAGA")
"Not fulfilled"
>>> category_label("CTTCGTGA")
"Fulfilled"
>>> category_label("AAGCCGAG")
"Not fulfilled"
>>> category_label("CGATACGA")
"Fulfilled"
>>> category_label("GCCTGAAA")
"Not fulfilled"
>>> category_label("AGCGTACG")
"Fulfilled"
>>> category_label("ATTCGTAC")
"Fulfilled"
>>> category_label("CGCGTACA")
"Fulfilled"
>>> category_label("ATAGTACC")
"Not fulfilled"
